# System Tested: LNCaP type mutant androgen receptor (AR) (Homo sapiens, UniProt P10275, T878A)
# Sequence (P10275 whole entry T878A): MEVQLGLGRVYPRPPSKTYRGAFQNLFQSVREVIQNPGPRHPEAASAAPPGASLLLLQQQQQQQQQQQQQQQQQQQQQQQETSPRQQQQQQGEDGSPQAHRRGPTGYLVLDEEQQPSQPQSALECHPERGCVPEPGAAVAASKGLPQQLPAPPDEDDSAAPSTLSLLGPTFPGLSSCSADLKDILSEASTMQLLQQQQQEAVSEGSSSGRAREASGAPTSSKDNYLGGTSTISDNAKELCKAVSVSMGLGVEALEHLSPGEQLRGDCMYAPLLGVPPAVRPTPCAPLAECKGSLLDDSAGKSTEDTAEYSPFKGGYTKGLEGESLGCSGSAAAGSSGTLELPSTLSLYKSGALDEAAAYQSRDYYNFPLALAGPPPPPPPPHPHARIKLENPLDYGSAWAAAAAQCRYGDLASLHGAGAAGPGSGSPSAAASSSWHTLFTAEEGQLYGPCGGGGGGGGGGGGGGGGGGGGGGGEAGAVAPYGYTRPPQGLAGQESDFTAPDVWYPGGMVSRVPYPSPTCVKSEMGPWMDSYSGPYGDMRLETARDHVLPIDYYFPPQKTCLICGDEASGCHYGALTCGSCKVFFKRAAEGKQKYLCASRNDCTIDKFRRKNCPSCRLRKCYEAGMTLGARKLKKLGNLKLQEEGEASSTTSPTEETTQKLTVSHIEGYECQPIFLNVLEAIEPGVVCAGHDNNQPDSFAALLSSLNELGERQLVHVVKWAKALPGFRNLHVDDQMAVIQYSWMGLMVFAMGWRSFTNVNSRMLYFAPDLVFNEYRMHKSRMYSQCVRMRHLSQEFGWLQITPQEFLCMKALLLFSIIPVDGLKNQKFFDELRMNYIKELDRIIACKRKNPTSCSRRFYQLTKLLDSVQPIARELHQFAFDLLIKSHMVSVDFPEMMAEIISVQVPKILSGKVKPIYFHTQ
# Protocol Notes: AR-binding inhibition test, LNCaP type (radio-labeled Mibolerone displacement)
# Condition Label: compound 1 μM; 3 nM radio-labeled Mibolerone; 4° C., 3 hours; dextran/charcoal method; read-out: Inhibitory rate (%) at 1 μM, LNCaP type
Rule: inhibition at 1 µM of 80% or more gives yes; anything lower gives no.

Compound: Cc1nn(Cc2ccc(C(N)=O)nc2)c(C)c1-c1ccc(C#N)c(C(F)(F)F)c1 [Example 311]
Qualitative Label: no

Compound: Cc1nn(Cc2ccc(C(N)=O)nc2)c(C)c1-c1ccc(C#N)c(Cl)c1 [Example 105]
Qualitative Label: no

Compound: Cc1nn(Cc2ccc(S(N)(=O)=O)cc2)c(C)c1-c1ccc(C#N)c(Cl)c1 [Example 322]
Qualitative Label: yes

Compound: Cc1nn(Cc2ccc(F)c(C(N)=O)c2)c(C)c1-c1ccc(C#N)c(Cl)c1 [Example 77]
Qualitative Label: no

====

Entries and their inhibition at 1 µM
# System Tested: LNCaP type mutant androgen receptor (AR) (Homo sapiens, UniProt P10275, T878A)
# Protocol Notes: AR-binding inhibition test, LNCaP type (radio-labeled Mibolerone displacement)
# Condition Label: compound 1 μM; 3 nM radio-labeled Mibolerone; 4° C., 3 hours; dextran/charcoal method; read-out: Inhibitory rate (%) at 1 μM, LNCaP type
Readout Type: inhibition at 1 µM (%)

Compound Smiles: CNC(=O)c1ccc(Cn2nc(C)c(-c3ccc(C#N)c(Cl)c3)c2C)cn1
Experimental Result: 79
--
Compound Smiles: Cc1nn(Cc2ccc(C(N)=O)cc2)c(C)c1-c1ccc(C#N)c(Cl)c1
Experimental Result: 80
--
Compound Smiles: Cc1nn(Cc2ccc(C(=O)NC3CC3)cc2)c(C)c1-c1ccc(C#N)c(Cl)c1
Experimental Result: 82
--
Compound Smiles: Cc1nn(Cc2cccc(C(N)=O)c2)c(C)c1-c1ccc(C#N)c(Cl)c1
Experimental Result: 82
